system: strychnine-induced seizures; test: Strychnine-induced seizure model; format: in vivo, mice; details: oral dose 1.0 mg/kg 60 min before strychnine 1.5 mg/kg s.c.; mean ± SD, N = 10
Consider the following compounds; for each one, report its Latency to Tremor and Seizure Onset.
Answer with a number only, understood to be in min.

Request the reported Latency to Tremor and Seizure Onset associated with COc1cc2c(cc1OC)C(c1ccccc1Br)NCC2 (stereo not shown)
10.5

What value of Latency to Tremor and Seizure Onset has been reported for the following compound? COc1cc2c(cc1OC)C(c1cc3c(cc1Cl)OCO3)NCC2 (stereo not shown)
13.6

Consider the compound COc1cc2c(cc1OC)C(c1ccc(OC)c(O)c1Br)NCC2 (stereo not shown) and give its measured Latency to Tremor and Seizure Onset.
10.5

// returns reported Latency to Tremor and Seizure Onset for input COc1cc2c(cc1OC)C(c1ccc(Br)cc1)NCC2 (stereo not shown)
12.5

Data request, read-out Latency to Tremor and Seizure Onset, for COc1ccc(C2NCCc3cc(OC)c(OC)cc32)cc1Br (stereo not shown)
16.0

Query (compound): COc1cc2c(cc1OC)C(c1cccc([N+](=O)[O-])c1)NCC2 (stereo not shown) ; field requested: Latency to Tremor and Seizure Onset
15.9

Tell me the measured Latency to Tremor and Seizure Onset of COc1ccc(C2NCCc3cc(OC)c(OC)cc32)cc1O (stereo not shown) , please.
18.2

Can you share its Latency to Tremor and Seizure Onset? I mean this compound: COc1cc2c(cc1OC)C(c1ccc(O)c(Br)c1)NCC2 (stereo not shown)
14.6

Value lookup for Latency to Tremor and Seizure Onset; key = COc1cc2c(cc1OC)C(c1cccc(N)c1)NCC2 (stereo not shown)
16.7

Data request, read-out Latency to Tremor and Seizure Onset, for COc1cc2c(cc1OC)C(c1cc(Br)ccc1O)NCC2 (stereo not shown)
15.7
